# assay: WHO-TDR: Cytotoxicity
# Assay type: toxicity, cell-based
# condition-summary: human, MRC5 cells
// values below are reported IC50
property: IC50

molecule | reported-measurement
O=C(COc1ccc(Cl)cc1)NCCCn1nc(-c2ccc(F)cc2)ccc1=O | > 12.5 µg/mL
O=C(CS(=O)(=O)c1ccc(Cl)cc1)Nc1nc(-c2ccc(F)cc2)cs1 | > 12.3 µg/mL
O=C(CSc1nnc(NC(=O)C2CCCCC2)s1)Nc1ccccc1C(F)(F)F | > 13.3 µg/mL
Cc1cc(F)ccc1S(=O)(=O)Nc1ccc2c(c1)CN(C(=O)c1ccco1)CC2 | 7.31 µg/mL
Cc1ccc(N2CCn3c2nnc(C(=O)NCCC2=CCCCC2)c3=O)cc1 | > 11.4 µg/mL
O=C(NCc1cc(-c2ccccc2F)on1)c1ccc(Br)o1 | > 11 µg/mL
O=C(Nc1nc(-c2ccccn2)cs1)c1cc(Cl)sc1Cl | 3.89 µg/mL
O=c1ccc(-c2ccncc2)nn1CCNS(=O)(=O)c1ccc2c(c1)CCCC2 | > 12.3 µg/mL
CC(C)(C)c1ccc(C(=O)N2CCN(c3ccc(Nc4ccncc4)nn3)CC2)cc1 | 3.49 µg/mL
O=C(CCC1CCCCC1)N1CCN(c2ccc(-c3cccnc3)nn2)CC1 | > 11.4 µg/mL
COc1ccc(-c2ccc(OCCNS(=O)(=O)c3ccc(Cl)s3)nn2)cc1 | 5.41 µg/mL
CS(=O)(=O)N1CCCCC1C(=O)Nc1nc2c(Cl)c(Cl)ccc2s1 (stereo not drawn) | > 12.2 µg/mL
Cc1cc(C(=O)Nc2nc(-c3ccc4c(c3)OCCO4)cs2)n(C)n1 | > 10.7 µg/mL
Cc1ccc(NC(=O)N2CCN(c3ccc(Nc4cccnc4)nn3)CC2)cc1C | > 12.1 µg/mL
O=C(Cc1csc(SCc2ccc(Cl)cc2)n1)NCCC1=CCCCC1 | > 12.2 µg/mL
Cc1cc(=O)[nH]c(-n2nc(-c3cccs3)cc2NC(=O)C2(c3ccc(Cl)cc3)CCCC2)n1 | 0.682 µg/mL
CCOc1ccccc1C(=O)Nc1sc(SCC(N)=O)nc1-c1ccccc1 | > 12.4 µg/mL
CS(=O)(=O)N1CCCC1C(=O)Nc1nc(-c2ccc(Cl)s2)cs1 (stereo not drawn) | > 11.8 µg/mL
Cc1ccccc1Cn1cc(C(=O)Nc2cccc(Br)c2)ccc1=O | 9.51 µg/mL
O=C(c1cccc(F)c1)N(CCCn1ccnc1)c1nc2ccc(F)cc2s1 | > 13 µg/mL
CCOc1ccc(NC(=O)CSc2nncc(O)n2)cc1 | 3.01 µg/mL
COc1cccc(-c2cc(CC(=O)NCCC(C)C)no2)c1 | > 9.07 µg/mL
COc1ccc(C)cc1S(=O)(=O)NCCNc1ccc(Nc2cccc(C)n2)nn1 | > 12.9 µg/mL
O=C(CSc1nncc(=O)[nH]1)Nc1cc(C(F)(F)F)ccc1Cl | > 10.9 µg/mL
CS(=O)(=O)c1ccc(CC(=O)Nc2nc3c(s2)-c2cccc4cccc-3c24)cc1 | 0.688 µg/mL
CCn1nc(C(=O)Nc2nnc(-c3ccc4c(c3)CCCC4)o2)cc1C | > 10.5 µg/mL
CC(C)N1CCc2c(sc(NC(=O)c3sc4ccccc4c3Cl)c2C(N)=O)C1 | 4.25 µg/mL
N#Cc1cnc2c(F)cccc2c1Nc1ccc(Br)cc1 | > 11.4 µg/mL
O=C(Nc1nnc(S)s1)c1cc(Br)ccc1Cl | > 10.5 µg/mL
O=C(CSc1ncc(-c2ccccc2)[nH]1)Nc1cc(C(F)(F)F)ccc1Cl | > 12.4 µg/mL
O=C(CSc1nnc(NC(=O)COc2ccc(Cl)cc2)s1)NCC1CCCO1 (stereo not drawn) | 3.54 µg/mL
CCc1ccc(C(=O)NCCNc2ccc(Nc3cccc(C)n3)nn2)cc1 | 6.22 µg/mL
c1ccc2c(c1)CCN(c1ncnc3[nH]ncc13)C2 | > 7.54 µg/mL
CC(C)(C)c1ccc(-c2csc(NC(=O)c3ccc4ncsc4c3)n2)cc1 | 7.77 µg/mL
Cc1cc(C)c(S(=O)(=O)N2CCN(c3ccc(Nc4ccncc4)nn3)CC2)cc1C | 1.94 µg/mL
CCC(=O)Nc1ccc(S(=O)(=O)NCCc2ccc(N3CCCC3)cc2)c(C)c1 | > 12.5 µg/mL
CN(C)CCN(C(=O)CCCS(=O)(=O)c1ccccc1)c1nc2ccc(F)cc2s1 | > 14.6 µg/mL
O=C(CCCSc1ccc(F)cc1)N1CCN(c2nc3ccc(Cl)cc3s2)CC1 | > 13.5 µg/mL
C=CCN(CC=C)S(=O)(=O)c1ccc(C(=O)Nc2nnc(-c3ccc(C)cc3C)o2)cc1 | 4.48 µg/mL
CCn1nnc2c(N3CCN(C(c4ccccc4)c4ccccc4)CC3)ncnc21 | > 12 µg/mL
O=C(Nc1nnc(-c2ccc3c(c2)CCCC3)o1)c1cc(Cl)sc1Cl | > 11.8 µg/mL
CCOc1cccc2cc(-c3csc(NC(=O)c4sc5ccccc5c4Cl)n3)oc12 | 0.237 µg/mL
O=C1CC(CNS(=O)(=O)c2ccccc2C(F)(F)F)CN1c1ccc(Cl)cc1 (stereo not drawn) | > 13 µg/mL

###

// values below are reported IC50
# System: Brugia malayi
# assay: WHO-TDR: Lymphatic Filariasis
# Type: functional, organism-based
property: IC50

compound | measured-on | property | reported-measurement
O=C(Nc1nccs1)c1ccc2c(c1)CCCC2 | Brugia malayi | IC50 | 5.19 µM
O=C(Nc1nc2c(Cl)ccc(Cl)c2s1)C1=COCCO1 | Brugia malayi | IC50 | 3.97 µM
CCOC(=O)c1ccc(NC(=O)CSc2c(C)[nH]c3ccccc23)cc1 | Brugia malayi | IC50 | 6.05 µM
CC(=O)Nc1ccc2nc(Nc3nc4ccc(C(C)C)cc4s3)sc2c1 | Brugia malayi | IC50 | 5.09 µM
O=C(CSc1nnc(NC(=O)C23CC4CC(CC(C4)C2)C3)s1)Nc1nccs1 | Brugia malayi | IC50 | 6.3 µM
COC(=O)c1ccc(COc2cccc3c2CCN(Cc2ccc(Cl)cc2)C3=O)o1 | Brugia malayi | IC50 | 4.61 µM
Cc1c(Cl)ccc2sc(NC(=O)c3ccc(S(=O)(=O)N4CC(C)CC(C)C4)cc3)nc12 (configuration not stated) | Brugia malayi | IC50 | 1.07 µM
COc1cccc2c1CCN(Cc1ccc(Cl)cc1)C2=O | Brugia malayi | IC50 | 3.54 µM
Cc1nc2ccc3nc(Nc4nc5c(F)cccc5s4)sc3c2s1 | Brugia malayi | IC50 | 5.21 µM
CC1CCc2c(sc(Nc3nc4c(F)cccc4s3)c2C(N)=O)C1 (configuration not stated) | Brugia malayi | IC50 | 4.99 µM
COC(=O)c1ccc(CSc2ccc(NC(=O)C(C)C)nn2)o1 | Brugia malayi | IC50 | 6.15 µM
Cc1cccc(-n2nc3c(c2NC(=O)Nc2cccc(Cl)c2)CSC3)c1 | Brugia malayi | IC50 | 1.77 µM

###

# Tested on: Onchocerca ochengi
# assay: WHO-TDR: Onchocerciasis
# Assay type: functional
# Design: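 at 12.5 µM on microfilariae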
property: % Inhibition (%)

molecule | unit-symbol | reported-measurement
NC(=O)c1cc(-c2ccccc2)sc1NC(=O)C1COc2ccccc2O1 (stereo not drawn) | % | 100
O=C(NCCNc1ccc(Nc2ccccn2)nn1)c1ccc(F)cc1 | % | 100
Cc1cc(C)c(S(=O)(=O)NCCNc2ccc(Nc3cccc(C)n3)nn2)c(C)c1 | % | 100
COc1cccc(-c2cc(CC(=O)NCCC(C)C)no2)c1 | % | 100
CCOc1ncccc1C(=O)Nc1c(C)nc2sc(C)c(C)n2c1=O | % | 0
CSc1cccc2sc(N3CCN(C(=O)c4ccccc4)CC3)nc12 | % | 100
Cc1cc(C(=O)Nc2nc(-c3cc4ccccc4o3)cs2)on1 | % | 100
O=S(=O)(CCCOc1ccc(F)cc1)NC1CCN(Cc2ccccc2)CC1 | % | 100
CC(C)c1ccc(NC(=O)c2n[nH]c3ccccc23)cc1 | % | 100
COc1ccc(S(=O)(=O)NCC(c2cccc3ccccc23)N(C)C)cc1C (stereo not drawn) | % | 100
Cc1nc2scc(-c3cccc(NS(C)(=O)=O)c3)n2c(=O)c1C | % | 100
CCc1nnc(NS(=O)(=O)c2ccc(NC(=O)c3nc4ccccc4s3)cc2)s1 | % | 100
O=C(c1ccco1)N(CCCn1ccnc1)c1nc2c(F)cc(F)cc2s1 | % | 100
CCn1ccc(C(=O)Nc2nc(-c3cc(Cl)ccc3Cl)cs2)n1 | % | 50
CCOC(=O)N1CCc2nc(NC(=O)CCCS(=O)(=O)c3ccc(F)cc3)sc2C1 | % | 100
O=C(CC1CSc2nccc(=O)n21)Nc1ccc(Cl)c(Cl)c1 (stereo not drawn) | % | 100
COc1ccc(OC)c(S(=O)(=O)NCCNc2ccc(Nc3cc(C)ccn3)nn2)c1 | % | 100
COc1ccc(-c2cn3c(C(=O)Nc4ccc(OC(F)(F)F)cc4)csc3n2)cc1 | % | 100
C=CCN1C(=O)C(C)(C)COc2ccc(NS(=O)(=O)c3ccc4c(c3)OCCO4)cc21 | % | 100
COc1ccc(N2CCN(C(=O)c3csc(NC(=O)c4ccccc4)n3)CC2)cc1 | % | 100
O=C(c1ccc(F)c(F)c1)N1CCN(c2nccn2-c2cccc(Cl)c2)CC1 | % | 100
CS(=O)(=O)N1CCCCC1C(=O)Nc1nc(-c2nc3ccccc3s2)cs1 (stereo not drawn) | % | 100
CN1CCc2cc(C(CNC(=O)COc3ccc(Cl)cc3Cl)N3CCCC3)ccc21 (stereo not drawn) | % | 50
O=C(c1ccccc1F)N1CCN(c2ccc(-c3ccccn3)nn2)CC1 | % | 100
O=C(Nc1nc2c(s1)CCCC2C(=O)NCCC1=CCCCC1)c1ccccc1 (stereo not drawn) | % | 100
Cc1noc(C)c1S(=O)(=O)Nc1cccc(-c2csc3nc(C)c(C)c(=O)n23)c1 | % | 0
CCn1ccc(C(=O)Nc2nc(C(C)(C)C)cs2)n1 | % | 100
Cc1cc(C)c(S(=O)(=O)N2CCN(c3ccc(Nc4ccncc4)nn3)CC2)cc1C | % | 0
O=C(Nc1nnc(Cc2cccs2)o1)c1cc(Cl)sc1Cl | % | 0
O=S(=O)(CCCOc1ccc(F)cc1)NCc1c(F)cccc1F | % | 50
COc1cccc(NC(=O)NCCNc2ccc(Nc3cccc(C)n3)nn2)c1 | % | 100
CCCc1nnc(NC(=O)CSc2ccc(NC(=O)c3cccs3)nn2)s1 | % | 0
Cc1ccnc(Nc2ccc(N3CCN(C(=O)Nc4cccc(F)c4)CC3)nn2)c1 | % | 100
Cc1cc(=O)n2c(-c3cccc(NC(=O)Nc4ccc(F)cc4)c3)csc2n1 | % | 0
O=C(CC1CCCCN1S(=O)(=O)c1ccc(Cl)cc1)Nc1ccc2c(c1)OCO2 (stereo not drawn) | % | 0
O=C(CSC1=Nc2cccnc2Nc2ccccc21)Nc1ccc(OC(F)(F)F)cc1 | % | 100
CC(C)CC(=O)NCCOc1ccc2nnc(-c3ccccc3)n2n1 | % | 0
CC1CCN(C(C)CNC(=O)Nc2ccccc2C(F)(F)F)CC1 (stereo not drawn) | % | 0
CN1CCCc2cc(C(CNC(=O)c3ccc4c(c3)OCO4)N3CCOCC3)ccc21 (stereo not drawn) | % | 100
O=C(CC(c1ccccc1)c1ccccc1)NCCCn1nc(-c2ccncc2)ccc1=O | % | 100
O=C(Cc1csc(NC(=O)C2CCC(=O)N2)n1)NCc1ccccn1 (stereo not drawn) | % | 0
O=C(c1ccccc1)N1CCN(c2ccc(Nc3ccccn3)nn2)CC1 | % | 0
O=C(CN1CCC(C(=O)Nc2ccc(Oc3ccccc3)cc2)CC1)Nc1ccc(F)cc1 | % | 0
